tested-target: anti-CD20 scFv-14
protocol-description: Octet (BLI) equilibrium binding, hybridoma supernatant; antigen format not stated
test-readout: pKd
Just the number, please; pKd means minus log10 of the concentration in mol/L.

binder	pKd
25B2 (antibody, V domains shown) VH: QIQLVQSGPELKKPGETVKISCKASGYTFTTYGMSWVKQAPGKGLKWMGWINTYSGVPTYADDFKGRFAFSLETSASTAYLQINNLKNEDTATYFCARTYYGNYFDYWGQGTTLTVSS VL: DIQMTQSPSSLSASLGGKVTITCKASQDINKYIAWYQHKPGKGPRLLIHYTSTLQPGIPSRFSGSGSGRDYSFSISNLEPEDIATYYCLQYDNLYTFGGGTKLEIK	9.42
22H5 (antibody, V domains shown) VH: DVQLQESGPGMVKPSQSLSLTCTVTGYSITSGYDWHWIRHFPGNKLEWMGYISYSGSTNYNPSLKSRISITHDTSKNHFFLKLNSVTTEDTATYYCAREGYSNYFDSWGQGTTLTVSS VL: SIVMTQTPKFLLVSAGDRVTITCKASQSVSNDVAWYQQKPGQSPKLLIFYASNRYTGVPDRFTGSGYGTDFTFTISTVQAEDLAVYFCQQDYSSPLAFGAGTKLELK	9.20

Given 29F1 (antibody, V domains shown) VH: QIQLVQSGPELKKPGETVKISCKASGYTFTTYGMSWVKQAPGKGLKWMGWINTYSGVPTYADDFKGRFAFSLETSASTAYLQINNLKNEDTATYFCARFYYGSSFDYWGQGTTLTVSS VL: DIQMTQSPASLSASVGETVTITCRASENIYSYLAWYQQKQGKSPQLLVYNAKTLAEGVPSRFSGSGSGTQFSLKINSLQPEDFGSYYCQHHYGTPLTFGAGTKLELK , state its recorded pKd. 10.27
